# Tested on: 6C3HED lymphosarcoma;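 note: values are percent inhibition of tumor growth and not deaths per total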
# assay name: animal or person
# Type: in vivo
# experimental conditions: Mus musculus, 6C3HED, po, read-out: % inhibition of tumor growth, oral, 150 mg/kg, DX 8
Items are presented alongside their recorded inhibition in vivo at 150 mg/kg.
A number alone suffices; assume %.

Reference set (3 entries):
* Cc1ccc(NC(=O)N=S(N)(=O)c2ccc(C)cc2)cc1 (centres unmarked) [Example 24] | 10
* CN=S(=O)(NC(=O)Nc1ccc(Cl)cc1)c1ccc(C)cc1 (centres unmarked) [Example 3] | 93
* Cc1ccc(S(=O)(=NC(=O)Nc2ccc(Cl)cc2)N(C)C)cc1 (centres unmarked) [Example 18] | 45

Value of measured inhibition in vivo at 150 mg/kg for the entry Cc1ccc(S(=N)(=O)NC(=O)Nc2ccc(Cl)cc2)cc1 (centres unmarked) [Example 2] : 74

Value of measured inhibition in vivo at 150 mg/kg for the entry CCCNS(=O)(=NC(=O)Nc1ccc(Cl)cc1)c1ccc(C)cc1 (centres unmarked) [Example 5] : 64

Value of measured inhibition in vivo at 150 mg/kg for the entry CC(=O)NS(=O)(=NC(=O)Nc1ccc(Cl)cc1)c1ccc(C)cc1 (centres unmarked) [Example 15] : 23

Value of measured inhibition in vivo at 150 mg/kg for the entry Cc1ccc(S(=O)(=NC(=O)Nc2ccc(Cl)cc2)Nc2ccccc2)cc1 (centres unmarked) [Example 14] : 0

Value of measured inhibition in vivo at 150 mg/kg for the entry Cc1ccc(S(=O)(=NC(=O)Nc2ccc(Cl)cc2)NCCO)cc1 (centres unmarked) [Example 10] : 40
